Where do these numbers come from? They come from patent US20160298117.

system.name: T1, Ara h1 (heat-denatured, purified from parboiled peanut) (Arachis hypogaea, UniProt P43238 P43238:26-626)
T1 sequence: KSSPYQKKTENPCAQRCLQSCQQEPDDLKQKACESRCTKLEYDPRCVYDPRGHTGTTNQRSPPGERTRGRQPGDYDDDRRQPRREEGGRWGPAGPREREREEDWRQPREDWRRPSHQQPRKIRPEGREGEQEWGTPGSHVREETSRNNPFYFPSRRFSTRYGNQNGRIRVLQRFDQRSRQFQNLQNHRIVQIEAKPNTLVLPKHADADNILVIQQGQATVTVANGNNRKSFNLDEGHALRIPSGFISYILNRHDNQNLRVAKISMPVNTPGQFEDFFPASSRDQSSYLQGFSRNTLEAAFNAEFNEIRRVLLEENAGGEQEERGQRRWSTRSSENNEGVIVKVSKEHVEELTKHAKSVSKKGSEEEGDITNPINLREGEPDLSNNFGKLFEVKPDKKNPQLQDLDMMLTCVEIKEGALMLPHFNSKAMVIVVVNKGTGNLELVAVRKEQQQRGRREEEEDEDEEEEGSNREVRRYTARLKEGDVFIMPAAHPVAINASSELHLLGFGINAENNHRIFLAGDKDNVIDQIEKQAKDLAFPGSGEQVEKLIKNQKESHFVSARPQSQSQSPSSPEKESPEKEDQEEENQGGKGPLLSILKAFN
assay.procedure: SPR; very high binding
conditions: tags: INDOOR biotechnologies NA-AH1-1
measured.metric: binding result

Before answering, review these 5 worked examples.
CTCTCTCTCTCCCCCCCTCTCTCTCAAAAAAAAAAAAAAAAAAAAAAAA (ssDNA) [CT25_C7] ... binds
CTCTCTCTCCCCCCCCCCCTCTCTCAAAAAAAAAAAAAAAAAAAAAAAA (ssDNA) [CT25_C11] ... binds
CACACACACACACCCACACACACACAAAAAAAAAAAAAAAAAAAAAAAAA (ssDNA) [CA25_C3] ... binds
CACACACACACACACACACACACACAAAAAAAAAAAAAAAAAAAAAAAAA (ssDNA) [CA25_C0] ... binds
CACACACACACCCCCCCACACACACAAAAAAAAAAAAAAAAAAAAAAAAA (ssDNA) [CA25_C7] ... binds

**Query** Item CTCTCTCTCTCTCTCTCTCTCTCTCAAAAAAAAAAAAAAAAAAAAAAAA (ssDNA) [CT25_C0] has what recorded binding result?
**Result** binds

**Query** Item CACACACACCCCCCCCCCCACACACAAAAAAAAAAAAAAAAAAAAAAAAA (ssDNA) [CA25_C11] has what recorded binding result?
**Result** binds
